- experimentNotes: in vitro
- assayConditions: PAMPA
valueKind: Papp at 10 h, 100 μg/mL
# output: number + unit

                                   compound        datavalue
0        O=C(Nc1ncc(N2CCOCC2)s1)c1ccc(Cl)s1  10.6 ×10⁻⁶ cm/s
1         O=C(CCc1ccccc1)Nc1ncc(N2CCOCC2)s1  10.5 ×10⁻⁶ cm/s
2  O=C(Nc1ncc(N2CCOCC2)s1)c1ccccc1 [Compound 24, N-(5-Morpholinothiazol-2-yl)benzamide]  12.6 ×10⁻⁶ cm/s
3            O=C(Nc1ncc(N2CCOCC2)s1)c1ccco1  6.16 ×10⁻⁶ cm/s

Next compound, Papp at 10 h, 100 μg/mL to be filled in.
Query "CC(=O)Oc1ccccc1C(=O)Nc1ncc(N2CCOCC2)s1" yields Papp at 10 h, 100 μg/mL of 5.76 ×10⁻⁶ cm/s

* * *

# Inhibition ratio of p70S6K phosphorylation at 20 μmol/L (%) per record follows
- Tested on: phosphorylation of p70S6K
- experimentNotes: Inhibition of p70S6K phosphorylation, α-screen assay in SH-SY5Y cell
- Assay type: cell-based
- assayConditions: mean ± SD (n ≥ 3)
Please state the figure in %; there is no need to write the unit.

Some solved cases for reference:
>>> df
                                   molecule  unit  datavalue
0  CSc1cnc(NC(=O)c2ccccc2OC(C)=O)s1 [Compound 8]     %      44.74
1  CC(=O)Oc1ccccc1C(=O)Nc1ncc(S(C)(=O)=O)s1 [Compound 9]     %      10.67
2  CC(=O)Oc1ccccc1C(=O)Nc1ncc(C#N)s1 [Compound 5]     %      70.85
3  O=C(Nc1ncc(N2CCOCC2)s1)c1ccc(O)cc1 [Compound 21]     %      79.20
4  CC(=O)CC(=O)Nc1ncc(N2CCOCC2)s1 [Compound 54]     %      66.46

Record COc1ccccc1C(=O)Nc1ncc(N2CCOCC2)s1 [Compound 29] ; system phosphorylation of p70S6K; Inhibition ratio of p70S6K phosphorylation at 20 μmol/L (%) = 26.90

Record CC(=O)Oc1ccccc1C(=O)Nc1ncc(N2CCNCC2)s1 [Compound 14] ; system phosphorylation of p70S6K; Inhibition ratio of p70S6K phosphorylation at 20 μmol/L (%) = 28.21

Record O=C(Nc1ncc(N2CCOCC2)s1)C1CCCCC1 [Compound 42] ; system phosphorylation of p70S6K; Inhibition ratio of p70S6K phosphorylation at 20 μmol/L (%) = 61.15

Record O=C(CCC(F)(F)F)Nc1ncc(N2CCOCC2)s1 [Compound 50] ; system phosphorylation of p70S6K; Inhibition ratio of p70S6K phosphorylation at 20 μmol/L (%) = 61.35

* * *

- targetDesc: hERG potassium channels (Homo sapiens, UniProt Q12809)
- Sequence (Q12809 whole entry): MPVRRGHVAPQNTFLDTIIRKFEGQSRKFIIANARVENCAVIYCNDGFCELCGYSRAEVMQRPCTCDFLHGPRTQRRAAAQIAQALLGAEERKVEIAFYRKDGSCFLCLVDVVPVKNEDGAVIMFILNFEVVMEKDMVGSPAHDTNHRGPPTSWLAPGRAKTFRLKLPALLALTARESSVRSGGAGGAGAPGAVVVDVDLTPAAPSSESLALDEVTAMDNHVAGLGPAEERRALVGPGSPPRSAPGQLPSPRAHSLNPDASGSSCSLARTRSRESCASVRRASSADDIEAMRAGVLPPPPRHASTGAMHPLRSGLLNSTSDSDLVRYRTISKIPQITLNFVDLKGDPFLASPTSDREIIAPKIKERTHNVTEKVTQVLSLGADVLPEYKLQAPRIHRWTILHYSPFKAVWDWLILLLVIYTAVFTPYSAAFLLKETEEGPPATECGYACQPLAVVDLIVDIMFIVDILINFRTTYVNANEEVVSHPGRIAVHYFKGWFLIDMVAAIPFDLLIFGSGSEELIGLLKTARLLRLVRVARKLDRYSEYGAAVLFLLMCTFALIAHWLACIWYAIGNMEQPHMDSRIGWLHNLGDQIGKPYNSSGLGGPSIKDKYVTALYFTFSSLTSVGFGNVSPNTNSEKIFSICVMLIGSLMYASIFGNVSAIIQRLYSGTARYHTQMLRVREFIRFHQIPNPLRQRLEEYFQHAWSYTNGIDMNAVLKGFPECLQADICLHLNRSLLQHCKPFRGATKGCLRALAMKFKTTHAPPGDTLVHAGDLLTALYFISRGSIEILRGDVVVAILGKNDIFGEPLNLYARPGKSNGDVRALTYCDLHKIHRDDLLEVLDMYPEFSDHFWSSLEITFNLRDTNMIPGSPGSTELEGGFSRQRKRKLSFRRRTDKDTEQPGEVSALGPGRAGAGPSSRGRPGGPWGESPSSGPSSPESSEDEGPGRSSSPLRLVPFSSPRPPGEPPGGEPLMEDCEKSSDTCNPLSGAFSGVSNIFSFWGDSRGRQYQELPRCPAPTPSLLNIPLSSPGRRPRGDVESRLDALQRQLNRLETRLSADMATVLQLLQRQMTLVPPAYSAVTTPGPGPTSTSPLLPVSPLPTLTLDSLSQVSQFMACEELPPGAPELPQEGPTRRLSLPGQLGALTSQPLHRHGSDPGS
- experimentNotes: hERG inhibition patch clamp assay
valueKind: IC50

Query CC(=O)Oc1cccc(C(=O)Nc2ncc(N3CCOCC3)s2)c1 [Compound 22] yields IC50 of > 40 µM

* * *

# Inhibition ratio of p70S6K phosphorylation at 20 μmol/L (%) per record follows
- Test system: phosphorylation of p70S6K
- experimentNotes: Inhibition of p70S6K phosphorylation, α-screen assay in SH-SY5Y cell
- Type: cell-based
- assayConditions: mean ± SD (n ≥ 3)
Please state the figure in %; there is no need to write the unit.

                                   compound                 targetdesc  datavalue
0  CC(=O)Oc1ccccc1C(=O)Nc1nccs1 [Compound 4, 2-Acetyloxy-N-(thiazol-2-yl)benzamide]  phosphorylation of p70S6K       9.98
1            O=C(Nc1ncc(N2CCOCC2)s1)c1cccs1  phosphorylation of p70S6K      79.80
2            O=C(Nc1ncc(N2CCOCC2)s1)c1ccsc1  phosphorylation of p70S6K      79.84
3          Cc1ccccc1C(=O)Nc1ncc(N2CCOCC2)s1  phosphorylation of p70S6K      55.38
4        O=C(Nc1ncc(N2CCOCC2)s1)c1ccc(Cl)s1  phosphorylation of p70S6K      83.32
5  O=C(Nc1ncc(N2CCOCC2)s1)c1ccc(C(F)(F)F)cc1O  phosphorylation of p70S6K       8.76
6             CC(C)CC(=O)Nc1ncc(N2CCOCC2)s1  phosphorylation of p70S6K      40.38
7  COC[C@H]1OC(=O)c2coc3c2[C@@]1(C)C1=C(C3=O)[C@@H]2CCC(=O)[C@@]2(C)C[C@H]1OC(C)=O [WORT, wortmannin, reference compound]  phosphorylation of p70S6K      90.68
8          O=C(Nc1ncc(N2CCOCC2)s1)C1CCCCCC1  phosphorylation of p70S6K      51.10
9  CCCCCC(=O)Nc1ncc(N2CCOCC2)s1 [Compound 48, N-(5-Morpholinothiazol-2-yl)hexanamide]  phosphorylation of p70S6K      61.32

Query CC(=O)Nc1ncc(N2CCOCC2)s1 [Compound 45, N-(5-Morpholinothiazol-2-yl)acetamide] yields Inhibition ratio of p70S6K phosphorylation at 20 μmol/L (%) of 43.86

Query "O=C(Nc1ncc(N2CCOCC2)s1)c1ccccc1F" yields Inhibition ratio of p70S6K phosphorylation at 20 μmol/L (%) of 65.98

Query O=C(Nc1ncc([N+](=O)[O-])s1)c1ccccc1O [Compound 2, tizoxanide, reference compound] yields Inhibition ratio of p70S6K phosphorylation at 20 μmol/L (%) of 43.09

Query O=C(Nc1ncc(N2CCOCC2)s1)c1ccccc1 [Compound 24, N-(5-Morpholinothiazol-2-yl)benzamide] yields Inhibition ratio of p70S6K phosphorylation at 20 μmol/L (%) of 77.51

Query "O=C(Nc1ncc(N2CCOCC2)s1)c1ccco1" yields Inhibition ratio of p70S6K phosphorylation at 20 μmol/L (%) of 81.09

Query O=C1CCCCC1C(=O)Nc1ncc(N2CCOCC2)s1 (stereo not drawn) yields Inhibition ratio of p70S6K phosphorylation at 20 μmol/L (%) of 44.94

Query "Cc1ccsc1C(=O)Nc1ncc(N2CCOCC2)s1" yields Inhibition ratio of p70S6K phosphorylation at 20 μmol/L (%) of 80.32

Query "O=C(Nc1ncc(N2CCOCC2)s1)c1ccc(F)cc1O" yields Inhibition ratio of p70S6K phosphorylation at 20 μmol/L (%) of 42.25

* * *

- System: phosphorylation of p70S6K
- experimentNotes: Inhibition of p70S6K phosphorylation, α-screen assay in SH-SY5Y cell
- Type: cell-based
- assayConditions: mean ± SD (n ≥ 3)
Rule: Inhibition ratio of p70S6K phosphorylation at 20 μmol/L (%) under 60% gives no, otherwise yes.

Some solved entries appear below for comparison.
>>> df
                                   compound  class
0  O=C(Nc1ncc(N2CCOCC2)s1)c1ccoc1 [Compound 34]    yes
1  COC(=O)c1cnc(NC(=O)c2ccccc2OC(C)=O)s1 [Compound 6]     no
2  O=C(Nc1ncc(N2CCOCC2)s1)c1cccc2ccccc12 [Compound 30]    yes
3  O=C(Nc1ncc(N2CCOCC2)s1)C1CCC1 [Compound 40]    yes
4  CC(=O)Oc1ccc(C(=O)Nc2ncc(N3CCOCC3)s2)cc1 [Compound 23]    yes
5  O=C(Nc1ncc(N2CCOCC2)s1)c1ccc(Cl)cc1O [Compound 16]     no
6  O=C(Nc1ncc(N2CCOCC2)s1)c1ccccc1O [Compound 19]     no
7  O=C(Nc1ncc(N2CCOCC2)s1)c1ccccc1[N+](=O)[O-] [Compound 27]     no
8  CC(=O)Oc1ccccc1C(=O)Nc1ncc(C(=O)O)s1 [Compound 10]     no
9  O=C(Nc1ncc(N2CCOCC2)s1)c1ccc2ccccc2c1 [Compound 31]    yes

stdin: Does Inhibition ratio of p70S6K phosphorylation at 20 μmol/L (%) meet or surpass 60% for CC(=O)Oc1ccccc1C(=O)Nc1ncc(-n2cccc2)s1 [Compound 13] ?
stdout: yes

stdin: Does Inhibition ratio of p70S6K phosphorylation at 20 μmol/L (%) meet or surpass 60% for CCC(=O)Nc1ncc(N2CCOCC2)s1 [Compound 46, N-(5-Morpholinothiazol-2-yl)propionamide] ?
stdout: no

stdin: Does Inhibition ratio of p70S6K phosphorylation at 20 μmol/L (%) meet or surpass 60% for O=C(CCc1ccccc1)Nc1ncc(N2CCOCC2)s1 [Compound 52] ?
stdout: yes

stdin: Does Inhibition ratio of p70S6K phosphorylation at 20 μmol/L (%) meet or surpass 60% for O=C(Nc1ncc(N2CCOCC2)s1)c1ccccc1C(F)(F)F [Compound 25] ?
stdout: no

* * *

- Test system: phosphorylation of p70S6K
- experimentNotes: Inhibition of p70S6K phosphorylation, α-screen assay in SH-SY5Y cell
- Assay type: cell-based
- assayConditions: mean ± SD (n ≥ 3)
valueKind: Inhibition ratio of p70S6K phosphorylation at 20 μmol/L (%)

>>> df
                                   compound    datavalue
0  CCCC(=O)Nc1ncc(N2CCOCC2)s1 [Compound 47, N-(5-Morpholinothiazol-2-yl)butyramide]  61.71±2.51%
1         Cc1ccc(C(=O)Nc2ncc(N3CCOCC3)s2)s1  81.20±1.60%
2          O=C(Cc1ccccc1)Nc1ncc(N2CCOCC2)s1  47.82±3.90%
3            O=C(Nc1ncc(N2CCOCC2)s1)C1CCCC1  63.37±4.65%
4        O=C(Nc1ncc(N2CCOCC2)s1)c1cccc(O)c1  83.86±1.54%

Query "CC(=O)Oc1ccccc1C(=O)Nc1ncc(N2CCCCC2)s1" yields Inhibition ratio of p70S6K phosphorylation at 20 μmol/L (%) of 56.27±4.61%

Query "CC(=O)Oc1ccccc1C(=O)Nc1ncc(C(=O)OCc2ccccc2)s1" yields Inhibition ratio of p70S6K phosphorylation at 20 μmol/L (%) of 18.88±5.27%

Query "O=C(Nc1ncc(N2CCOCC2)s1)c1ccc(Br)cc1O" yields Inhibition ratio of p70S6K phosphorylation at 20 μmol/L (%) of 15.41±5.32%

Query "O=C(Nc1ncc(N2CCOCC2)s1)C1CC1" yields Inhibition ratio of p70S6K phosphorylation at 20 μmol/L (%) of 63.76±1.31%

Each recorded value in this set is attributed to paper PMC7161708.
